The values you see were collected from patent US8084489B2.

# System under test: cloned human glucagon receptor (Homo sapiens, UniProt P47871)
# Sequence (P47871 26-477): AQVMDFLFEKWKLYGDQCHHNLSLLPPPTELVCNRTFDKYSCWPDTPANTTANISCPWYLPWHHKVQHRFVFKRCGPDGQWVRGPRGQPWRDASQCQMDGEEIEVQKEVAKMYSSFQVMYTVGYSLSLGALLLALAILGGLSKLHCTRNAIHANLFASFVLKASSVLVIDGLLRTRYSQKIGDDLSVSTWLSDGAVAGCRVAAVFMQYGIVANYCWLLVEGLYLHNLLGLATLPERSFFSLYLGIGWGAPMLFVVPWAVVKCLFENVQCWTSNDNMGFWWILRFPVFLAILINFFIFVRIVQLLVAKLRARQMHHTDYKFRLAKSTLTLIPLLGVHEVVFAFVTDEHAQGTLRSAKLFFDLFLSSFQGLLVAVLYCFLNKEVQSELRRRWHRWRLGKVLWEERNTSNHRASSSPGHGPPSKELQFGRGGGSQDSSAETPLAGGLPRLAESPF
Quantity measured: Ki (nM)

>  <Compound>
CC(C)CC(Oc1ccc(-c2ccc(C(C)(C)C)cc2)nc1)c1ccc(C(=O)NCCC(=O)O)s1 (centres unmarked)

>  <U>
nM

>  <Ki>
296

$$$$
>  <Compound>
CC(C)CC(Oc1ccc(-c2ccc(C(F)(F)F)cc2)cc1)c1ccc(C(=O)NCCC(=O)O)s1 (centres unmarked)

>  <U>
nM

>  <Ki>
390

$$$$
